The reported measurements were obtained from paper PMC12389646.

# Tested on: non-tumor HEK293T cell line
# procedure_text: MTS cell viability assay, HEK293T
# Format: cell-based, human
# stated_conditions: Homo sapiens, HEK-293T; HEK293T cells, MTS, 24 h treatment
pIC50 reference
In plain terms, pIC50 is the concentration in mol/L turned into minus its base-10 logarithm.

Examples with their reported pIC50 follow.
{"molecule": "O=C(N/N=C/c1c[nH]c2ncc(Br)cc12)c1ccccn1 [RF-87A (2b)]", "measured_on": "non-tumor HEK293T cell line", "outcome_measure": "pIC50", "observed_value": 3.85}
{"molecule": "O=C(N/N=C/c1c[nH]c2ncc(Br)cc12)c1ccc2c(c1)CCCC2 [RF-86A (2a)]", "measured_on": "non-tumor HEK293T cell line", "outcome_measure": "pIC50", "observed_value": 3.94}

Specify pIC50 for O=C(N/N=C/c1c[nH]c2ncc(Br)cc12)c1cnc2ccccc2n1 [RF-94B (2d)] and stop.
4.59

Specify pIC50 for O=C(N/N=C/c1c[nH]c2ncc(Br)cc12)c1cnccn1 [RF-94A (2c)] and stop.
4.59

----------
# System: non-tumor HEK293T cell line
# procedure_text: MTS cell viability assay, HEK293T
# Type: cell-based, human
# stated_conditions: IC50 HEK293T divided by IC50 A375
Selectivity Index reference
Please give only the number in your answer, with no unit.

Examples with their reported Selectivity Index follow.
{"molecule": "O=C(N/N=C/c1c[nH]c2ncc(Br)cc12)c1ccccn1 [RF-87A (2b)]", "measured_on": "non-tumor HEK293T cell line", "Selectivity Index": 3.01}
{"molecule": "O=C(N/N=C/c1c[nH]c2ncc(Br)cc12)c1ccc2c(c1)CCCC2 [RF-86A (2a)]", "measured_on": "non-tumor HEK293T cell line", "Selectivity Index": 16.37}
{"molecule": "O=C(N/N=C/c1c[nH]c2ncc(Br)cc12)c1cnccn1 [RF-94A (2c)]", "measured_on": "non-tumor HEK293T cell line", "Selectivity Index": 0.49}

Now consider a different molecule.
Provide Selectivity Index, system non-tumor HEK293T cell line, entry O=C(N/N=C/c1c[nH]c2ncc(Br)cc12)c1cnc2ccccc2n1 [RF-94B (2d)]
0.55

----------
# Test system: human melanoma A375 cells
# procedure_text: MTS cell viability assay, A375
# Format: cell-based
# stated_conditions: A-375, 24 h treatment, 0.01-10 μM tested
# Experimental: The human cutaneous melanoma cancer cell line A375, obtained from the American Type Culture Collection (ATCC, Rockville, MD, USA) and human embryonic kidney HEK293T cell line, obtained from Rio de Janeiro Cell Bank (BCRJ, Rio de Janeiro, Brazil), were cultured in Dulbecco’s Modified Eagle’s Medium (DMEM, Sigma-Aldrich, St. Louis, MO, USA) supplemented with L-glutamine (2 mM), 10% fetal bovine serum (FBS), 50 IU/mL penicillin and 50 μg/mL streptomycin (Sigma-Aldrich, St. Louis, MO, USA). […]
outcome_measure: pIC50
In plain terms, pIC50 is the concentration in mol/L turned into minus its base-10 logarithm.

Examples with their reported pIC50 follow.
{"molecule": "O=C(N/N=C/c1c[nH]c2ncc(Br)cc12)c1ccccn1 [RF-87A (2b)]", "outcome_measure": "pIC50", "observed_value": 4.33}
{"molecule": "O=C(N/N=C/c1c[nH]c2ncc(Br)cc12)c1cnc2ccccc2n1 [RF-94B (2d)]", "outcome_measure": "pIC50", "observed_value": 4.33}
{"molecule": "O=C(N/N=C/c1c[nH]c2ncc(Br)cc12)c1cnccn1 [RF-94A (2c)]", "outcome_measure": "pIC50", "observed_value": 4.28}
{"molecule": "O=C(N/N=C/c1c[nH]c2ncc(Br)cc12)c1ccc2c(c1)CCCC2 [RF-86A (2a)]", "outcome_measure": "pIC50", "observed_value": 5.16}

Specify pIC50 for CCCS(=O)(=O)Nc1ccc(F)c(C(=O)c2c[nH]c3ncc(-c4ccc(Cl)cc4)cc23)c1F and stop.
5.11
